Catalogue of molecules with associated pIC50
biological target: UniProt Q8N884; test: Cellular assay to measure cGAS activity (IFNb AlphaLISA in THP1 cells stimulated by RDG-Adenovirus-GFP); assay type: cell-based; design: host or cells: THP1 cells differentiated with PMA and stimulated with RDG-Adenovirus-GFP; conditions: PMA-differentiated THP1 cells, RDG-Adenovirus-GFP at 1000 MOI; inhibition of IFNb production as marker for cGAS activity
Sequence (Q8N884 whole entry): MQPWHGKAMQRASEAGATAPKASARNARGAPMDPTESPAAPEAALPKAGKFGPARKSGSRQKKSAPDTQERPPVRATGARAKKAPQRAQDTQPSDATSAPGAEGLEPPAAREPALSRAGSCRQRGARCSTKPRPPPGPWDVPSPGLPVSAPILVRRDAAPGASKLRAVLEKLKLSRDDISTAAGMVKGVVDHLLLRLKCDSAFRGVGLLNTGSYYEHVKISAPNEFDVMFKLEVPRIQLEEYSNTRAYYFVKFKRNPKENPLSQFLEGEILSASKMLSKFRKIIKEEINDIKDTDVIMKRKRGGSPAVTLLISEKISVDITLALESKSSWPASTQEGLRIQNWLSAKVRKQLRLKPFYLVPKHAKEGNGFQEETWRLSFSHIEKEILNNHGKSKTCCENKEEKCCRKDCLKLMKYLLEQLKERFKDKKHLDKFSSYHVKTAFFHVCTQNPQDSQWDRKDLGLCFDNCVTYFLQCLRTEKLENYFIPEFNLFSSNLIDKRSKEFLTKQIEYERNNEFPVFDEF
Conceptually, pIC50 converts a concentration in mol/L into minus its log10.

C[C@H]1C(=O)NCCc2c1c1c(NC(=O)CO)cc(Cl)c(Cl)c1n2C(F)F (single isomer, unassigned)	6.54
C[C@@H]1CNC(=O)Cc2c1[nH]c1c(Cl)c(Cl)cc(OCC#N)c21 (single isomer, unassigned) [Example 148]	5.86
COCC[C@@H]1CNC(=O)[C@@H](C)c2c1[nH]c1c(Cl)c(Cl)cc(NCCO)c21 (racemic)	5.95
Cn1c2c(c3c(OCC#N)cc(Cl)c(Cl)c31)CC(=O)NCC2CCO (centres unmarked)	6.33
CC1C(=O)NCCc2[nH]c3c(Cl)c(Cl)cc(OC4COC4)c3c21 (centres unmarked)	5.73

Data request: Would you mind telling me what pIC50 value was observed for CCOc1cc(Cl)c(Cl)c2[nH]c3c(c12)[C@H](C)C(=O)NCC3 (single isomer, unassigned) [Example 15B] ?
Data returned: 5.09

Data request: Would you mind telling me what pIC50 value was observed for C[C@H]1C(=O)NCCc2[nH]c3c(Cl)c(Cl)cc(-c4cnn(C)n4)c3c21 (single isomer, unassigned) [Example 37] ?
Data returned: 6.10

Data request: Would you mind telling me what pIC50 value was observed for CC1C(=O)NCCc2[nH]c3c(Cl)c(Cl)cc(NCCO)c3c21 (single isomer, unassigned) [Example 50] ?
Data returned: 6.54

Data request: Would you mind telling me what pIC50 value was observed for Cn1c2c(c3c(CC#N)cc(Cl)c(Cl)c31)CC(=O)NC[C@H]2CC(C)(C)O (single isomer, unassigned) [Example 130] ?
Data returned: 6.69

Data request: Would you mind telling me what pIC50 value was observed for C[C@H]1C(=O)NCCc2[nH]c3c(Cl)c(Cl)cc(N[C@@H]4CCOC4)c3c21 (single isomer, unassigned) [Example 64] ?
Data returned: 5.62

Data request: Would you mind telling me what pIC50 value was observed for C[C@@H]1C(=O)NC[C@H](C)c2[nH]c3c(Cl)c(Cl)cc(CC#N)c3c21 (single isomer, unassigned) [Example 152] ?
Data returned: 5.27

Data provenance is patent US20240246979A1.
